- Tested on: HBV viral production in AD38 cells
- experimental-protocol: Viral load production in AD38 cells by quantitative PCR of the HBV core sequence in supernatant
- Assay type: cell-based
- settings: Hepatitis B virus, 144 h; 10 μM compound, 6 days at 37° C., viral load in supernatant compared against DMSO control wells; read-out: AD38 Viral Load (CpAM/DMSO %) at 10 μM
endpoint-name: activity at 10 µM (%)

>>> experimental_value("O=C(Nc1ccncc1)c1ccc2c(c1)NC(=O)c1ccccc1N2Cc1ccccc1")
115
>>> experimental_value("O=C(NCc1cccc(OC(F)(F)F)c1)c1ccc2c(c1)NC(=O)c1ccccc1S2(=O)=O")
1
>>> experimental_value("O=C1Nc2cc(COCCc3ccccc3)ccc2Sc2ccccc21")
37
>>> experimental_value("O=C(NC(CO)Cc1cncnc1)c1ccc2c(c1)NC(=O)c1cc(F)ccc1S2 (stereo not shown)")
79
>>> experimental_value("O=C(NCc1cncnc1)c1ccc2c(c1)NC(=O)c1ccccc1[S+]2[O-] (stereo not shown)")
10
>>> experimental_value("O=C(O)c1ccc2c(c1)Sc1ccc(C(=O)NCCC3CCCCC3)cc1NC2=O")
102
>>> experimental_value("O=C(NCCc1ccc(-c2cnn[nH]2)cc1)c1ccc2c(c1)NC(=O)c1ccccc1S2")
1

---

- System: AD38 cells
- experimental-protocol: Viability of AD38 cells (Promega CellTiter-Glo) at the end of compound treatment
- Assay type: cell-based
- settings: 10 μM compound, 6 days, luminescence normalized against DMSO control wells (controls being 100%)
Some compounds, each annotated with its measured AD38 Viability Normalized Result (CPAM/DMSO %) at 10 μM.
endpoint-name: AD38 Viability Normalized Result (CPAM/DMSO %) at 10 μM

>>> experimental_value("CC(=O)N(CCc1ccccc1)Cc1ccc2c(c1)NC(=O)c1ccccc1S2")
88
>>> experimental_value("O=C(Nc1cccc(-c2ccccc2C(=O)O)c1)c1ccc2c(c1)NC(=O)c1cc(F)ccc1S2")
99
>>> experimental_value("O=C(NCCc1nnc(-c2ccco2)[nH]1)c1ccc2c(c1)NC(=O)c1ccccc1S2")
115
>>> experimental_value("O=C(Nc1ccncc1)c1ccc2c(c1)NC(=O)c1cccc(F)c1S2")
87
>>> experimental_value("O=C(NCCc1ccccn1)c1ccc2c(c1)NC(=O)c1c(F)cccc1S2")
97
>>> experimental_value("Cc1cccc(CNC(=O)c2ccc3c(c2)NC(=O)c2ccccc2S3)c1")
104
>>> experimental_value("CCOC(=O)C(NC(=O)c1ccc2c(c1)NC(=O)c1cc(F)ccc1S2)c1ccccn1 (centres unmarked)")
96
>>> experimental_value("O=C(Nc1ccc(F)cc1F)c1ccc2c(c1)NC(=O)c1cc(F)ccc1S2")
70
